# key: entry, value: melting point

COc1cccc(-c2nn(-c3ccccc3)cc2-c2ccnc(NCCCNS(=O)(=O)c3cccc4ccccc34)c2)c1; 134 to 136 °C
O=S(=O)(NCCCNc1cc(-c2cn(-c3ccccc3)nc2-c2cccc(O)c2)ccn1)c1cccc(F)c1; 120 to 122 °C

Let's switch to this molecule now.
Lab note: measured melting point of O=S(=O)(NCCNc1cc(-c2cn(-c3ccccc3)nc2-c2cccc(O)c2)ccn1)c1ccc(F)cc1 was 106 to 108 °C

Numbers sourced from paper PMC6222820.
